The reported measurements were obtained from patent US10800772B2.

- Tested on: HIV-IIIb IN T174I DE
- test: Antiviral assay in MT4 cells, HIV-IIIb IN T174I DE virus (from dose escalation passaging)
- Type: cell-based, HIV-1
- condition-context: Human immunodeficiency virus 1, IIIB, MT4, 120 h, read-out: T174I DE EC50, MT4 cells, HIV-IIIb IN T174I DE (dose escalation), 5 days, CellTiter-Glo
Parameter EC50: see the listing below.
Give the value, in units of nM, as a plain number.

The cases that follow already have their EC50 on record.
CC(=O)N1CC(N2CCC(c3c4nc(-c5nc6cc(C)c([C@H](OC(C)(C)C)C(=O)O)c(-c7ccc(Cl)cc7)c6s5)ccc4nn3C(F)F)CC2)C1 [Compound 189]	1400
CC(=O)N1CC(N2CCC(c3nn(C)c4ncc(-c5nc6cc(C)c([C@H](OC(C)(C)C)C(=O)O)c(-c7ccc(Cl)cc7)c6s5)nc34)CC2)C1 [Compound 120]	217
Cc1cc2nc(-c3ccc4c(n3)c(C3CCN(C5COC5)CC3)nn4C(F)F)sc2c(-c2ccc(Cl)cc2)c1[C@H](OC(C)(C)C)C(=O)O [Compound 194]	300
CC(=O)N1CC(N2CCC(c3nn(C)c4ccc(-c5nc6cc(C)c([C@H](OC(C)(C)C)C(=O)O)c(-c7ccc(Cl)cc7)c6s5)cc34)CC2)C1 [Compound 30]	187
Cc1cc2nc(-c3ccc4c(c3)c(N3CCCN(C)CC3)nn4C)sc2c(-c2ccc(Cl)cc2)c1[C@H](OC(C)(C)C)C(=O)O [Compound 132]	1680

Switching to the query record.
Give the measured EC50 of CC(=O)N1CC(N2CCC(c3nn(CCN(C)C)c4ccc(-c5nc6cc(C)c([C@H](OC(C)(C)C)C(=O)O)c(-c7ccc(Cl)cc7)c6s5)cc34)CC2)C1 [Compound 33] . 1020
